- METHOD_SUMMARY: Tacrolimus blood concentration and AUC0-12 hours after IC or PO administration
- CONDITION_SET: female, Yorkshire-Cross, swine, in vivo, 0.02 mg/kg
METRIC: concentration at 12 h (ng/mL)
Please give a number only; it is taken to be in ng/mL.

Return concentration at 12 h for the following compound: C=CC[C@@H]1/C=C(\C)C[C@H](C)C[C@H](OC)[C@H]2O[C@@](O)(C(=O)C(=O)N3CCCC[C@H]3C(=O)O[C@H](/C(C)=C/[C@@H]3CC[C@@H](O)[C@H](OC)C3)[C@H](C)[C@@H](O)CC1=O)[C@H](C)C[C@@H]2OC
0.746

* * *

- METHOD_SUMMARY: Tacrolimus blood concentration and AUC0-12 hours after IC or PO administration
- CONDITION_SET: female, Yorkshire-Cross, swine, in vivo, 0.04 mg/kg
- Method: FIG. 77 is a graph showing the mean concentration of tacrolimus in the blood 1 hour, 2 hours, 3 hours, 4 hours, 6 hours and 12 hours after intracecal (IC) or oral administration (PO) of tacrolimus to swine as described in Example 13. FIG. 78 is a graph showing the AUC0-12 hours of tacrolimus in the blood after intracecal (IC) or oral administration (PO) of tacrolimus in swine as described in Example 13. […]
METRIC: concentration at 12 h (ng/mL)
Please give a number only; it is taken to be in ng/mL.

Return concentration at 12 h for the following compound: C=CC[C@@H]1/C=C(\C)C[C@H](C)C[C@H](OC)[C@H]2O[C@@](O)(C(=O)C(=O)N3CCCC[C@H]3C(=O)O[C@H](/C(C)=C/[C@@H]3CC[C@@H](O)[C@H](OC)C3)[C@H](C)[C@@H](O)CC1=O)[C@H](C)C[C@@H]2OC
1.96

* * *

- METHOD_SUMMARY: Pharmacokinetics of oral vs intra-cecal tacrolimus: blood, rectal contents, GI tissue and luminal content (Example 13)
- Set-up: species or system Yorkshire-Cross farm swine
- CONDITION_SET: female, Yorkshire-Cross, swine, in vivo, po, 0.09 mg/kg, Trough level (12 hr)
METRIC: concentration at 12 h
Report the figure along with its unit, number first.

Return concentration at 12 h for the following compound: C=CC[C@@H]1/C=C(\C)C[C@H](C)C[C@H](OC)[C@H]2O[C@@](O)(C(=O)C(=O)N3CCCC[C@H]3C(=O)O[C@H](/C(C)=C/[C@@H]3CC[C@@H](O)[C@H](OC)C3)[C@H](C)[C@@H](O)CC1=O)[C@H](C)C[C@@H]2OC [tacrolimus]
0.568 ng/mL

* * *

- METHOD_SUMMARY: Pharmacokinetics of oral vs intra-cecal tacrolimus: blood, rectal contents, GI tissue and luminal content (Example 13)
- Parameters: species or system Yorkshire-Cross farm swine
- CONDITION_SET: female, Yorkshire-Cross, swine, in vivo, 0.09 mg/kg, Trough (12 hr)
METRIC: concentration at 12 h
Report the figure along with its unit, number first.

Return concentration at 12 h for the following compound: C=CC[C@@H]1/C=C(\C)C[C@H](C)C[C@H](OC)[C@H]2O[C@@](O)(C(=O)C(=O)N3CCCC[C@H]3C(=O)O[C@H](/C(C)=C/[C@@H]3CC[C@@H](O)[C@H](OC)C3)[C@H](C)[C@@H](O)CC1=O)[C@H](C)C[C@@H]2OC [tacrolimus]
4.35 ng/mL
